- Tested on: Aspergillus oryzae
- assay-overview: Antifungal activity against Aspergillus oryzae 1-Murasaki-1 after 24 hrs by two-fold serial dilution method
- Assay type: functional
- stated-conditions: 1-Murasaki-1, 24 h
Kindly supply the reported MIC values for the records listed here.
Give bare numbers, in µg/mL.

Batch request: MIC for each of the following molecules.
1. CCCCCCCCCCCCNC(=O)[C@@H]1CC(=O)N[C@H](CO)C(=O)N[C@H](Cc2ccc(O)cc2)C(=O)N[C@H](CC(N)=O)C(=O)NCC(=O)N[C@@H](CC(N)=O)C(=O)N[C@@H](CO)C(=O)N[C@@H](CC(N)=O)C(=O)N1
2. CCCCCCCCCCCCNC(=O)[C@H]1CC(=O)N[C@@H](CO)C(=O)N[C@@H](Cc2ccc(O)cc2)C(=O)N[C@H](CC(N)=O)C(=O)NCC(=O)N[C@@H](CC(N)=O)C(=O)N[C@@H](CO)C(=O)N[C@@H](CC(N)=O)C(=O)N1
3. CCCCCCCCCCCCNC(=O)[C@@H]1CC(=O)N[C@@H](CO)C(=O)N[C@H](Cc2ccc(O)cc2)C(=O)N[C@@H](CC(N)=O)C(=O)NCC(=O)N[C@@H](CC(N)=O)C(=O)N[C@@H](CO)C(=O)N[C@@H](CC(N)=O)C(=O)N1
4. CCCCCCCCCCCCNC(=O)[C@@H]1CC(=O)N[C@H](CO)C(=O)N[C@H](Cc2ccc(O)cc2)C(=O)N[C@@H](CC(N)=O)C(=O)NCC(=O)N[C@@H](CC(N)=O)C(=O)N[C@@H](CO)C(=O)N[C@@H](CC(N)=O)C(=O)N1
5. CCCCCCCCCCCCNC(=O)[C@H]1CC(=O)N[C@H](CO)C(=O)N[C@H](Cc2ccc(O)cc2)C(=O)N[C@H](CC(N)=O)C(=O)NCC(=O)N[C@@H](CC(N)=O)C(=O)N[C@@H](CO)C(=O)N[C@@H](CC(N)=O)C(=O)N1
6. CCCCCCCCCCCCNC(=O)[C@@H]1CC(=O)N[C@@H](CO)C(=O)N[C@H](Cc2ccc(O)cc2)C(=O)N[C@H](CC(N)=O)C(=O)NCC(=O)N[C@@H](CC(N)=O)C(=O)N[C@@H](CO)C(=O)N[C@@H](CC(N)=O)C(=O)N1
7. NC(=O)C[C@@H]1NC(=O)CNC(=O)[C@@H](CC(N)=O)NC(=O)[C@@H](Cc2ccc(O)cc2)NC(=O)[C@@H](CO)NC(=O)CCNC(=O)[C@H](CC(N)=O)NC(=O)[C@H](CO)NC1=O

Output:
1: 50; 2: 800; 3: 400; 4: 800; 5: 800; 6: 400; 7: 800

###

- Tested on: Aspergillus oryzae
- assay-overview: Antifungal activity against Aspergillus oryzae 1-Murasaki-1 after 24 hrs by two-fold serial dilution method
- Format: functional
- stated-conditions: 1-Murasaki-1, 24 h
assay-readout: MIC

compound: CCCCCCCCCCCCNC(=O)[C@@H]1CC(=O)N[C@@H](CO)C(=O)N[C@@H](Cc2ccc(O)cc2)C(=O)N[C@@H](CC(N)=O)C(=O)NCC(=O)N[C@@H](CC(N)=O)C(=O)N[C@@H](CO)C(=O)N[C@@H](CC(N)=O)C(=O)N1
target-or-system: Aspergillus oryzae
MIC: 200 µg/mL

Now for another entry.
Input: Can you share its MIC? I mean this compound: CCCCCCCCCCCCNC(=O)[C@H]1CC(=O)N[C@H](CO)C(=O)N[C@@H](Cc2ccc(O)cc2)C(=O)N[C@@H](CC(N)=O)C(=O)NCC(=O)N[C@@H](CC(N)=O)C(=O)N[C@@H](CO)C(=O)N[C@@H](CC(N)=O)C(=O)N1
Output: > 800 µg/mL

###

- Tested on: Aspergillus oryzae
- assay-overview: Antifungal activity against Aspergillus oryzae 1-Murasaki-1 after 24 hrs by two-fold serial dilution method
- Format: functional
- stated-conditions: 1-Murasaki-1, 24 h
assay-readout: MIC (µg/mL)
Give bare numbers, in µg/mL.

compound: CCCCCCCCCCCCNC(=O)[C@@H]1CC(=O)N[C@H](CO)C(=O)N[C@@H](Cc2ccc(O)cc2)C(=O)N[C@H](CC(N)=O)C(=O)NCC(=O)N[C@@H](CC(N)=O)C(=O)N[C@@H](CO)C(=O)N[C@@H](CC(N)=O)C(=O)N1
unit-text: µg/mL
MIC: 100
//
compound: CCCCCCCCCCCCNC(=O)[C@H]1CC(=O)N[C@H](CO)C(=O)N[C@H](Cc2ccc(O)cc2)C(=O)N[C@@H](CC(N)=O)C(=O)NCC(=O)N[C@@H](CC(N)=O)C(=O)N[C@@H](CO)C(=O)N[C@@H](CC(N)=O)C(=O)N1
unit-text: µg/mL
MIC: 800

Proceeding to the next compound to report its MIC.
Input: Entry CCCCCCCCCCCCNC(=O)[C@@H]1CC(=O)N[C@@H](CO)C(=O)N[C@@H](Cc2ccc(O)cc2)C(=O)N[C@H](CC(N)=O)C(=O)NCC(=O)N[C@@H](CC(N)=O)C(=O)N[C@@H](CO)C(=O)N[C@@H](CC(N)=O)C(=O)N1 : reported MIC = ?
Output: 400

###

I'd appreciate it if you could supply MIC values for the items below.
- Test system: Aspergillus oryzae
- assay-overview: Antifungal activity against Aspergillus oryzae 1-Murasaki-1 after 24 hrs by two-fold serial dilution method
- Format: functional
- stated-conditions: 1-Murasaki-1, 24 h
One number for each entry, in µg/mL.

compound: CCCCCCCCCCCCNC(=O)[C@H]1CC(=O)N[C@H](CO)C(=O)N[C@@H](Cc2ccc(O)cc2)C(=O)N[C@H](CC(N)=O)C(=O)NCC(=O)N[C@@H](CC(N)=O)C(=O)N[C@@H](CO)C(=O)N[C@@H](CC(N)=O)C(=O)N1
target-or-system: Aspergillus oryzae
MIC / µg/mL: 400

Input: Look up MIC for this compound: CCCCCCCCCCCCNC(=O)[C@H]1CC(=O)N[C@@H](CO)C(=O)N[C@H](Cc2ccc(O)cc2)C(=O)N[C@H](CC(N)=O)C(=O)NCC(=O)N[C@@H](CC(N)=O)C(=O)N[C@@H](CO)C(=O)N[C@@H](CC(N)=O)C(=O)N1
Output: 100
